Test: chemical genetic growth profiling, strain panel (AID 1159580);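 note: tested at 20 µM; growth read once vehicle control cultures reached saturation at 30 °C; 1 = growth at the plate median or of vehicle wells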
Conditions: S. cerevisiae deletion strains, growth OD, locus YIL066C, strain RNR3, hits give low values
The whole screen tested about 5,500 compounds, of which about 2,000 (36%) were called active. Roughly 18% stayed inconclusive and do not appear here. Some of the results follow.
readout: normalized growth
Answer using only a numeral; do not append any unit.

Example entries and their recorded answers appear below.
[
  {
    "compound": "COC(=O)[C@H]1[C@H]2C[C@H]3c4[nH]c5ccccc5c4CCN3C[C@H]2CC[C@@H]1O",
    "normalized growth": 1.02
  },
  {
    "compound": "CN=C(NC#N)NCCSCc1nc[nH]c1C",
    "normalized growth": 0.998
  },
  {
    "compound": "CCC(C(N)=O)c1ccccc1 (stereo unspecified)",
    "normalized growth": 1.01
  },
  {
    "compound": "CCC1(c2ccccc2)C(=O)NCNC1=O",
    "normalized growth": 1.01
  },
  {
    "compound": "O=C(O)C1C(O)CCC2CN3CCc4c([nH]c5ccccc45)C3CC21 (stereo unspecified)",
    "normalized growth": 1.01
  }
]

Here's the next entry for you.
### Prompt Dear colleague, I am looking for the recorded normalized growth of the following compound: OCc1ccccc1O[C@@H]1O[C@H](CO)[C@@H](O)[C@H](O)[C@H]1O
### Response 0.967

* * *

Experiment: chemical genetic growth profiling, strain panel (AID 1159580)
Conditions: S. cerevisiae deletion strains, growth OD, locus YKL085W, strain MDH1, hits give low values
Out of some 5,500 compounds screened, about 2,000 (36%) were called active. Roughly 18% stayed inconclusive and do not appear here. Some of the results follow.
// classify: if (normalized growth < 1) 1 else -1

Before answering, review these 2 worked examples.
[
  {
    "compound": "CCCCCCCCCCCCC[N+](C)(C)Cc1ccccc1",
    "assigned category": 1
  },
  {
    "compound": "COc1cccc2c1CCC1CC(=O)CCC21C (stereo unspecified)",
    "assigned category": 1
  }
]

### Prompt Would you kindly verify if normalized growth of OC(CCN1CCCCC1)(c1ccccc1)c1ccccc1 is strictly less than 1?
### Response -1

### Prompt Would you kindly verify if normalized growth of Cc1ccc(C(=O)C(C)CN2CCCCC2)cc1 (stereo unspecified) is strictly less than 1?
### Response -1

* * *

Consider the following molecules and their measured normalized growth readings.
Test: chemical genetic growth profiling, strain panel (AID 1159580)
Details: S. cerevisiae deletion strains, growth OD, locus YPR111W, strain DBF20, hits give low values
The whole screen tested about 5,500 compounds, of which about 2,000 (36%) were called active. About 18% were inconclusive and are not listed. Some of the results follow.
Answer using only a numeral; do not append any unit.

Example entries and their recorded answers appear below.
[
  {
    "smiles notation": "NCCCN=c1ccc2c3c1c(O)c1c(O)ccc(=O)c1c3[nH]n2CCNCCO",
    "result number": 0.979
  },
  {
    "smiles notation": "N#C/C(=N/Nc1ccccc1Cl)S(=O)(=O)c1ccc(Cl)cc1",
    "result number": 0.961
  },
  {
    "smiles notation": "N#C/C(=C\\c1ccccc1Sc1ccc(Cl)cc1)S(=O)(=O)c1ccccn1",
    "result number": 0.942
  },
  {
    "smiles notation": "Cn1cncc1S(=O)(=O)/C(C#N)=C/c1ccccc1Sc1ccc(Cl)cc1",
    "result number": 0.962
  },
  {
    "smiles notation": "C=CC(=O)N1CCc2cc([N+](=O)[O-])ccc21",
    "result number": 0.887
  }
]

Here's the next entry for you.
### Prompt Dear colleague, I am looking for the recorded normalized growth of the following molecule: Cc1cc(SCc2[nH]nc3oc(=O)cc(C)c23)c(Cl)cc1Cl
### Response 0.974

* * *

Assay: chemical genetic growth profiling, strain panel (AID 1159580)
Conditions: S. cerevisiae deletion strains, growth OD, locus YDR363W, strain ESC2, hits give low values
About 2,000 (36%) of roughly 5,500 compounds were called active. Inconclusive results (about 18%) are left out. The list shows a part of the results.
readout: normalized growth
Answer using only a numeral; do not append any unit.

Example entries and their recorded answers appear below.
[
  {
    "compound": "CC(C)Oc1cccnc1N(C)C1CCN(Cc2ccccc2)CC1",
    "normalized growth": 1
  },
  {
    "compound": "Oc1ccc2c3c1O[C@H]1c4[nH]c5c(c4C[C@@]4(O)[C@@H](C2)N(CC2CC2)CC[C@]314)C[C@@]1(O)[C@H]2Cc3ccc(O)c4c3[C@@]1(CCN2CC1CC1)[C@H]5O4",
    "normalized growth": 1.02
  },
  {
    "compound": "O=C(O)c1cc(=O)c2ccc(Cl)cc2[nH]1",
    "normalized growth": 1.03
  },
  {
    "compound": "CCOC(=O)c1ncn2c1CN(C)C(=O)c1cc(F)ccc1-2",
    "normalized growth": 0.997
  },
  {
    "compound": "CCCC[N+]1(C)C2CC(OC(=O)[C@H](CO)c3ccccc3)CC1C1OC12 (some centres not stated)",
    "normalized growth": 0.999
  }
]

Here's the next entry for you.
### Prompt Dear colleague, I am looking for the recorded normalized growth of the following compound: CCC1(c2ccc(N)cc2)CCC(=O)NC1=O (configuration not stated)
### Response 1.01

* * *

Test: chemical genetic growth profiling, strain panel (AID 1159580)
Conditions: S. cerevisiae deletion strains, growth OD, locus YDR335W, strain msn5
The campaign covered roughly 5,500 compounds. About 2,000 (36%) were called active. Inconclusive results (about 18%) are left out. No stated cut-off is given here; in the data, active means normalized growth mostly below about 0.91 (no sharp cut-off); inconclusive means no clear call, values can overlap the other calls; inactive means mostly above about 0.92. The list shows a part of the results.
Allowed answers: 1 (yes) for active, 0 (no) for inactive

Before answering, review these 2 worked examples.
[
  {
    "compound": "COc1ccc(C[C@H]2NC[C@H](O)[C@H]2OC(C)=O)cc1",
    "assigned category": "0 (no)"
  },
  {
    "compound": "CCN(CC)C(=S)SSC(=S)N(CC)CC",
    "assigned category": "1 (yes)"
  }
]

Next item in the queue.
### Prompt Hi, do you know how NC(N)=Nc1nc(CSCCC(N)=NS(N)(=O)=O)cs1 came out in this test?
### Response 0 (no)

* * *

Test: chemical genetic growth profiling, strain panel (AID 1159580);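 note: tested at 20 µM; growth read once vehicle control cultures reached saturation at 30 °C; 1 = growth at the plate median or of vehicle wells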
Conditions: S. cerevisiae deletion strains, growth OD, locus YAL030W, strain snc1, hits give low values
Among all 5,500 compounds or so, about 2,000 (36%) were called active. Another 18% or so got no clear call; they are omitted. Some of the results follow.
readout: normalized growth
Answer using only a numeral; do not append any unit.

Example entries and their recorded answers appear below.
[
  {
    "molecule": "N#Cc1c(Cl)c(Cl)c(Cl)c(C#N)c1Cl",
    "normalized growth": 0.0677
  },
  {
    "molecule": "C[N+](C)(C)CC(=O)[O-]",
    "normalized growth": 1
  },
  {
    "molecule": "CCN(CC)C(=S)SSC(=S)N(CC)CC",
    "normalized growth": 0.0564
  },
  {
    "molecule": "COC(=O)COc1cc(Cl)c(Cl)cc1Cl",
    "normalized growth": 0.998
  },
  {
    "molecule": "C[C@@H]1O[C@@H](O[C@H]2[C@@H](Oc3cc(O)c4c(c3)O[C@H](c3ccc(O)cc3)CC4=O)O[C@H](CO)[C@@H](O)[C@@H]2O)[C@H](O)[C@H](O)[C@H]1O",
    "normalized growth": 0.956
  },
  {
    "molecule": "c1ccc(CN(CC2=NCCN2)c2ccccc2)cc1",
    "normalized growth": 1.01
  }
]

### Prompt Dear colleague, I am looking for the recorded normalized growth of the following molecule: c1ccc(CC2=NCCN2)cc1
### Response 1.01

* * *

Consider the following compounds and their measured normalized growth readings.
Assay: chemical genetic growth profiling, strain panel (AID 1159580);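 note: tested at 20 µM; growth read once vehicle control cultures reached saturation at 30 °C; 1 = growth at the plate median or of vehicle wells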
Settings: S. cerevisiae deletion strains, growth OD, locus YGL086W, strain mad1, hits give low values
Out of some 5,500 compounds screened, about 2,000 (36%) were called active. Inconclusive results (about 18%) are left out. Some of the results follow.

### Prompt Dear colleague, I am looking for the recorded normalized growth of the following compound: CCOC(=O)/C=C(\C)OP(=O)(OC)OC
### Response 0.993 (inactive)

### Prompt Dear colleague, I am looking for the recorded normalized growth of the following compound: CCCCOc1ccc(OCCCN2CCOCC2)cc1
### Response 0.906 (active)

* * *

Assay: chemical genetic growth profiling, strain panel (AID 1159580);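 note: tested at 20 µM; growth read once vehicle control cultures reached saturation at 30 °C; 1 = growth at the plate median or of vehicle wells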
Settings: S. cerevisiae deletion strains, growth OD, locus YLR221C, strain rsa3
Screen size: about 5,500 compounds; about 2,000 (36%) were called active. Not shown: some 18% with an inconclusive outcome. No stated cut-off is given here; in the data, active means normalized growth mostly below about 0.91 (no sharp cut-off); inconclusive means no clear call, values can overlap the other calls; inactive means mostly above about 0.92. Some of the results follow.
Allowed answers: active, inactive

[
  {
    "compound": "CCC1(c2ccccc2)C(=O)NCNC1=O",
    "assigned category": "inactive"
  },
  {
    "compound": "CC(C)[C@H](N)C(=O)OCCOCn1cnc2c(=O)[nH]c(N)nc21",
    "assigned category": "inactive"
  },
  {
    "compound": "CC(C)N(C(=O)CCl)c1ccccc1",
    "assigned category": "inactive"
  },
  {
    "compound": "COc1ccc(C[C@H]2NC[C@H](O)[C@H]2OC(C)=O)cc1",
    "assigned category": "active"
  },
  {
    "compound": "CCC1(c2ccc(N)cc2)CCC(=O)NC1=O (stereo unspecified)",
    "assigned category": "inactive"
  }
]

Next item in the queue.
### Prompt Hi, do you know how Cc1cc(C(C)(C)CC(C)(C)C)ccc1OCCOCC[N+](C)(C)Cc1ccccc1 came out in this test?
### Response active
